Please respond with reported pIC50 for every item in the list.
Target: UniProtKB Q9BY41
Sequence (Q9BY41 whole entry): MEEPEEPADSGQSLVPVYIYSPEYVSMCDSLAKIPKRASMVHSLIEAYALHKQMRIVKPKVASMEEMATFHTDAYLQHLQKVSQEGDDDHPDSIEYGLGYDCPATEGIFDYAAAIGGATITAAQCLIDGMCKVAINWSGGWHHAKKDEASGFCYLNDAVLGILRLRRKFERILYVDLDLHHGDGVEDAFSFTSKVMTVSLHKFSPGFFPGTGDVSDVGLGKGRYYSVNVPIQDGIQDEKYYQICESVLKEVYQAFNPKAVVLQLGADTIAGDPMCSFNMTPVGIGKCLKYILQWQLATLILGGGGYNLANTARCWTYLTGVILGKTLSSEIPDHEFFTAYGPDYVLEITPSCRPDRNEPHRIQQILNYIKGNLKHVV
Assay: Inhibition of His-tagged full length recombinant human HDAC8 expressed in baculovirus expression system assessed as release of 7-amino-4-methylcoumarin by fluorogenic assay
Numbers only, as −log10 of the molar value.

INSERT INTO measurements (smiles_structure, quantitative_result) VALUES
  ('O=C(/C=C/c1cccc(S(=O)(=O)c2ccc3ccccc3n2)c1)NO', 6.89);

Continue with the next molecule.
The reported pIC50 value, UniProtKB Q9BY41, for `O=C(/C=C/c1cccc(S(=O)(=O)c2ccc3cccc(F)c3n2)c1)NO` reads 6.70

----------
Target: Histone deacetylase 2 (Homo sapiens, UniProt Q92769)
Sequence (Q92769 whole entry): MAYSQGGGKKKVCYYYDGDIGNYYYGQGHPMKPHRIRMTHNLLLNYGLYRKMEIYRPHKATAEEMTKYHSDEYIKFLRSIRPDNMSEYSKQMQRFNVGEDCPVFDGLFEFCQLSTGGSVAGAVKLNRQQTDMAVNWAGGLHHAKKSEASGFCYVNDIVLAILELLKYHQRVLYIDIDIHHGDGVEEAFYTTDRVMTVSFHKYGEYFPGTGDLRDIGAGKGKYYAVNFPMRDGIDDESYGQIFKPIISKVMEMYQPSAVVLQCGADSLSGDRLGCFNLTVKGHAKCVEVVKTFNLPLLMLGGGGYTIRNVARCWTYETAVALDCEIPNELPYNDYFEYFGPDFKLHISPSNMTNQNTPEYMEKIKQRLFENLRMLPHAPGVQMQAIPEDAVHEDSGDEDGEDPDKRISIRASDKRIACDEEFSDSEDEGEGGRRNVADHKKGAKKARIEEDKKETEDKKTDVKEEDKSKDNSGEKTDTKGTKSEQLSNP
Experiment: Inhibition of full length recombinant human HDAC2 expressed in baculovirus expression system assessed as release of 7-amino-4-methylcoumarin by fluorogenic assay
MEASURED_QUANTITY: IC50 (nM)
One number for each entry, in nM.

INSERT INTO results (smiles_structure, quantitative_result) VALUES
  ('O=C(/C=C/c1cccc(S(=O)(=O)c2ccc3ccccc3n2)c1)NO', 11.5);

Continue with the next compound.
The compound listed as `O=C(/C=C/c1cccc(S(=O)(=O)c2ccc3cccc(F)c3n2)c1)NO` shows IC50 equal to 15
